Test system: MDCK (dog kidney) cells
Experiment: Toxicity TC50 of the samples in MDCK cells (influenza screening)
Settings: concentration of 50% toxicity
readoutType: TC50

compound="C=C1CC2(OS(=O)(=O)[O-])OC3(CC2C(C)C)C(C)CCC13.[Na+] (stereo not shown) [Compound 21, Curcumol sodium sulfonate]" readouttype=TC50 resultvalue=">1000 µg/mL"
compound="C=C1CC2(O)OC3(CC2C(C)C)C(C)CCC13 (stereo not shown) [Curcumol E, Curcumol, reference compound]" readouttype=TC50 resultvalue=">1000 µg/mL"
compound="C=C1CC2(OC)OC3(CC2C(C)C)C(C)CCC13 (stereo not shown)" readouttype=TC50 resultvalue=">1000 µg/mL"
compound=NC(=O)c1ncn([C@@H]2O[C@H](CO)[C@@H](O)[C@H]2O)n1 readouttype=TC50 resultvalue=">2000 µg/mL"

Every entry's value here was drawn from patent US7700584B2.
